target.or.test.system: MMP-2 (Homo sapiens)
Sequence (P08253 110-660): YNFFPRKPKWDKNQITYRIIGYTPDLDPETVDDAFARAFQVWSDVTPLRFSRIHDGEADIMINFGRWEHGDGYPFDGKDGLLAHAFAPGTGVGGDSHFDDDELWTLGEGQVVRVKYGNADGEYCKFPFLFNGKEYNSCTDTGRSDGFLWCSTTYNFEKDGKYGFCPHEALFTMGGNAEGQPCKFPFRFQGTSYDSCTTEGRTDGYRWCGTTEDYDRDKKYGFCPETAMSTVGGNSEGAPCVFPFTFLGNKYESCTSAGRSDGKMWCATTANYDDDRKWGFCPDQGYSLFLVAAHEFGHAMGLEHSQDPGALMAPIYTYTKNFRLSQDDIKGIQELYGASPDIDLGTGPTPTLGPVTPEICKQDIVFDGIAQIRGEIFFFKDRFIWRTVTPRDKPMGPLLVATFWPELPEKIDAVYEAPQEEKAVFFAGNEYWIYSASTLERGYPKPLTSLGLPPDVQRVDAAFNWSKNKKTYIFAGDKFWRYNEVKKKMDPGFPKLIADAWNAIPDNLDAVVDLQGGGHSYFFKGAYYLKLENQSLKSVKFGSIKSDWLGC
experimental.protocol: biochemical
pIC50: −log10 of the molar value.
endpoint.label: pIC50

{"columns": ["molecule", "reported"],
 "data": [
  ["Cc1ccc(C(=O)CCCC(CC(=O)c2ccc(-c3ccc(Cl)cc3)cc2)C(=O)O)cc1 (stereo not shown)", 7.72],
  ["O=C(CCCCC(CC(=O)c1ccc(-c2ccc(Cl)cc2)cc1)C(=O)O)c1ccccc1 (stereo not shown)", 8.12],
  ["O=C(CCCCCC(CC(=O)c1ccc(-c2ccc(Cl)cc2)cc1)C(=O)O)c1ccccc1 (stereo not shown)", 7.47],
  ["CCc1ccc(C(=O)CCCC(CC(=O)c2ccc(-c3ccc(Cl)cc3)cc2)C(=O)O)cc1 (stereo not shown)", 7.53],
  ["CC(C)c1ccc(C(=O)CCCC(CC(=O)c2ccc(-c3ccc(Cl)cc3)cc2)C(=O)O)cc1 (stereo not shown)", 7.45],
  ["COc1cc(OC)c(C(=O)CCCC(CC(=O)c2ccc(-c3ccc(Cl)cc3)cc2)C(=O)O)c(OC)c1 (stereo not shown)", 8.09],
  ["O=C(CCCC(CC(=O)c1ccc(-c2ccc(Cl)cc2)cc1)C(=O)O)c1ccc(Oc2ccccc2)cc1 (stereo not shown)", 6.88],
  ["O=C(CCCC(CC(=O)c1ccc(-c2ccc(Cl)cc2)cc1)C(=O)O)c1ccc(Br)cc1 (stereo not shown)", 7.55],
  ["Cc1ccc(C(=O)CCCC(CC(=O)c2ccc(-c3ccc(Cl)cc3)cc2)C(=O)O)cc1C (stereo not shown)", 7.32],
  ["O=C(CCCC(CC(=O)c1ccc(-c2ccc(Cl)cc2)cc1)C(=O)O)c1ccccc1 (stereo not shown)", 8.00],
  ["Cc1cc(C)c(C(=O)CCCC(CC(=O)c2ccc(-c3ccc(Cl)cc3)cc2)C(=O)O)c(C)c1 (stereo not shown)", 7.51],
  ["O=C(CCC(CC(=O)c1ccc(-c2ccc(Cl)cc2)cc1)C(=O)O)c1ccccc1 (stereo not shown)", 8.02],
  ["COc1ccc(C(=O)CCCC(CC(=O)c2ccc(-c3ccc(Cl)cc3)cc2)C(=O)O)c(OC)c1 (stereo not shown)", 7.60],
  ["COc1ccccc1C(=O)CCCC(CC(=O)c1ccc(-c2ccc(Cl)cc2)cc1)C(=O)O (stereo not shown)", 7.58],
  ["COc1ccc(C(=O)CCCC(CC(=O)c2ccc(-c3ccc(Cl)cc3)cc2)C(=O)O)cc1 (stereo not shown)", 7.60],
  ["CC(C)(C)c1ccc(C(=O)CCCC(CC(=O)c2ccc(-c3ccc(Cl)cc3)cc2)C(=O)O)cc1 (stereo not shown)", 7.15]
]}

###

target.or.test.system: MMP-9 (Homo sapiens, UniProt P14780)
Sequence (P14780 107-707 limits assumed): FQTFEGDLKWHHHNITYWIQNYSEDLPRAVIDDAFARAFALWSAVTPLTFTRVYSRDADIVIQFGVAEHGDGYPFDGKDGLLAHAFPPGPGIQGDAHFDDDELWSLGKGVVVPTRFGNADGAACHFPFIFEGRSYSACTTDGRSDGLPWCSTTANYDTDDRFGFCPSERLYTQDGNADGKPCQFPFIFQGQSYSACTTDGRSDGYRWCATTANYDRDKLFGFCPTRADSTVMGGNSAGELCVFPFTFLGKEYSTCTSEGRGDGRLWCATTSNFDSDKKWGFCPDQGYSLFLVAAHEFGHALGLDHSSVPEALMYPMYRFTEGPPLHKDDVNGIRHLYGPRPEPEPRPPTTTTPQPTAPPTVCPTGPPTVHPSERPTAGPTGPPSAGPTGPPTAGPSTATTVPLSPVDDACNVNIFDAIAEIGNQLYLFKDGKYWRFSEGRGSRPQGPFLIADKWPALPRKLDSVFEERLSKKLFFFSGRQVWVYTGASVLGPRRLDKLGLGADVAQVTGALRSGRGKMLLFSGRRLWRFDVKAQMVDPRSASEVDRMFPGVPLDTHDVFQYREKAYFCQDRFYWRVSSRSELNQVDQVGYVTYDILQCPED
pIC50: −log10 of the molar value.
Returns Satisfied if the recorded pIC50 is greater than or equal to 7, and Not satisfied otherwise.

{"columns": ["molecule", "class.label"],
 "data": [
  ["O=C(CCCCCC(CC(=O)c1ccc(-c2ccc(Cl)cc2)cc1)C(=O)O)c1ccccc1 (centres unmarked) [IV]", "Not satisfied"],
  ["O=C(CCCCC(CC(=O)c1ccc(-c2ccc(Cl)cc2)cc1)C(=O)O)c1ccccc1 (centres unmarked) [III]", "Satisfied"],
  ["COc1ccc(C(=O)CCCC(CC(=O)c2ccc(-c3ccc(Cl)cc3)cc2)C(=O)O)c(OC)c1 (centres unmarked) [XII]", "Not satisfied"]
]}

###

target.or.test.system: MMP-9 (Homo sapiens, UniProt P14780)
// log10 of IC50 lookup, one value per entry
endpoint.label: log10 of IC50 (log10 of the value in nM)

{"columns": ["compound", "log10 of IC50"],
 "data": [
  ["COc1ccccc1C(=O)CCCC(CC(=O)c1ccc(-c2ccc(Cl)cc2)cc1)C(=O)O (centres unmarked)", 2.18],
  ["Cc1cc(C)c(C(=O)CCCC(CC(=O)c2ccc(-c3ccc(Cl)cc3)cc2)C(=O)O)c(C)c1 (centres unmarked)", 3.12],
  ["Cc1ccc(C(=O)CCCC(CC(=O)c2ccc(-c3ccc(Cl)cc3)cc2)C(=O)O)cc1 (centres unmarked)", 2.03],
  ["O=C(CCC(CC(=O)c1ccc(-c2ccc(Cl)cc2)cc1)C(=O)O)c1ccccc1 (centres unmarked)", 2.10],
  ["CC(C)(C)c1ccc(C(=O)CCCC(CC(=O)c2ccc(-c3ccc(Cl)cc3)cc2)C(=O)O)cc1 (centres unmarked)", 2.22],
  ["CCc1ccc(C(=O)CCCC(CC(=O)c2ccc(-c3ccc(Cl)cc3)cc2)C(=O)O)cc1 (centres unmarked)", 2.10],
  ["COc1ccc(C(=O)CCCC(CC(=O)c2ccc(-c3ccc(Cl)cc3)cc2)C(=O)O)cc1 (centres unmarked)", 2.16],
  ["O=C(CCCC(CC(=O)c1ccc(-c2ccc(Cl)cc2)cc1)C(=O)O)c1ccccc1 (centres unmarked)", 1.82]
]}

###

Examples of molecules with documented IC50 follow.
target.or.test.system: MMP-3 (Homo sapiens)
Sequence (P08254 100-477): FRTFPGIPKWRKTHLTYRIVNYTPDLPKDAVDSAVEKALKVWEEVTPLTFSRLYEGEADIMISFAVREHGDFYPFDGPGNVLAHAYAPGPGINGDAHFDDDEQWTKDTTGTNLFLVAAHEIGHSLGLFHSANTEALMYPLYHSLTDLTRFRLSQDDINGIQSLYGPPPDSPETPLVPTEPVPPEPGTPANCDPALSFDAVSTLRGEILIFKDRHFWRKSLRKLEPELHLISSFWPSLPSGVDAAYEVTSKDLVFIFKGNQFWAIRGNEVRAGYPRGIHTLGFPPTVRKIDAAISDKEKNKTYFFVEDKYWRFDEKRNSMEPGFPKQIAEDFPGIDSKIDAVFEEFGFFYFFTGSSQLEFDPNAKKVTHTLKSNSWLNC
endpoint.label: IC50 (nM)

{"columns": ["molecule", "endpoint.label", "unit.of.measurement", "reported"],
 "data": [
  ["O=C(CCCCCC(CC(=O)c1ccc(-c2ccc(Cl)cc2)cc1)C(=O)O)c1ccccc1 (centres unmarked)", "IC50", "nM", 109],
  ["Cc1cc(C)c(C(=O)CCCC(CC(=O)c2ccc(-c3ccc(Cl)cc3)cc2)C(=O)O)c(C)c1 (centres unmarked)", "IC50", "nM", 39.6],
  ["CC(C)(C)c1ccc(C(=O)CCCC(CC(=O)c2ccc(-c3ccc(Cl)cc3)cc2)C(=O)O)cc1 (centres unmarked)", "IC50", "nM", 222],
  ["COc1ccc(C(=O)CCCC(CC(=O)c2ccc(-c3ccc(Cl)cc3)cc2)C(=O)O)c(OC)c1 (centres unmarked)", "IC50", "nM", 115],
  ["COc1ccc(C(=O)CCCC(CC(=O)c2ccc(-c3ccc(Cl)cc3)cc2)C(=O)O)cc1 (centres unmarked)", "IC50", "nM", 122],
  ["O=C(CCCC(CC(=O)c1ccc(-c2ccc(Cl)cc2)cc1)C(=O)O)c1ccc(Oc2ccccc2)cc1 (centres unmarked)", "IC50", "nM", 367],
  ["Cc1ccc(C(=O)CCCC(CC(=O)c2ccc(-c3ccc(Cl)cc3)cc2)C(=O)O)cc1 (centres unmarked)", "IC50", "nM", 69.1],
  ["O=C(CCCC(CC(=O)c1ccc(-c2ccc(Cl)cc2)cc1)C(=O)O)c1ccccc1 (centres unmarked)", "IC50", "nM", 65]
]}

###

Record set of IC50 for target or system MMP-3 (Homo sapiens, UniProt P08254).

{"columns": ["molecule", "IC50"],
 "data": [
  ["COc1ccccc1C(=O)CCCC(CC(=O)c1ccc(-c2ccc(Cl)cc2)cc1)C(=O)O (centres unmarked)", "0.0482 µM"],
  ["O=C(CCC(CC(=O)c1ccc(-c2ccc(Cl)cc2)cc1)C(=O)O)c1ccccc1 (centres unmarked)", "0.096 µM"],
  ["CC(C)c1ccc(C(=O)CCCC(CC(=O)c2ccc(-c3ccc(Cl)cc3)cc2)C(=O)O)cc1 (centres unmarked)", "0.13 µM"],
  ["CCc1ccc(C(=O)CCCC(CC(=O)c2ccc(-c3ccc(Cl)cc3)cc2)C(=O)O)cc1 (centres unmarked)", "0.089 µM"],
  ["COc1cc(OC)c(C(=O)CCCC(CC(=O)c2ccc(-c3ccc(Cl)cc3)cc2)C(=O)O)c(OC)c1 (centres unmarked)", "0.0717 µM"],
  ["Cc1ccc(C(=O)CCCC(CC(=O)c2ccc(-c3ccc(Cl)cc3)cc2)C(=O)O)cc1C (centres unmarked)", "0.104 µM"],
  ["O=C(CCCC(CC(=O)c1ccc(-c2ccc(Cl)cc2)cc1)C(=O)O)c1ccc(Br)cc1 (centres unmarked)", "0.125 µM"],
  ["O=C(CCCCC(CC(=O)c1ccc(-c2ccc(Cl)cc2)cc1)C(=O)O)c1ccccc1 (centres unmarked)", "0.0611 µM"]
]}

###

pIC50: −log10 of the molar value.
# MMP-9 (Homo sapiens, UniProt P14780): pIC50 values follow

{"columns": ["molecule", "pIC50"],
 "data": [
  ["O=C(CCCC(CC(=O)c1ccc(-c2ccc(Cl)cc2)cc1)C(=O)O)c1ccc(Br)cc1 (centres unmarked)", 6.88],
  ["Cc1ccc(C(=O)CCCC(CC(=O)c2ccc(-c3ccc(Cl)cc3)cc2)C(=O)O)cc1C (centres unmarked)", 6.98],
  ["CC(C)c1ccc(C(=O)CCCC(CC(=O)c2ccc(-c3ccc(Cl)cc3)cc2)C(=O)O)cc1 (centres unmarked)", 6.88],
  ["O=C(CCCC(CC(=O)c1ccc(-c2ccc(Cl)cc2)cc1)C(=O)O)c1ccc(Oc2ccccc2)cc1 (centres unmarked)", 7.18],
  ["COc1cc(OC)c(C(=O)CCCC(CC(=O)c2ccc(-c3ccc(Cl)cc3)cc2)C(=O)O)c(OC)c1 (centres unmarked)", 6.88]
]}
